Target: panel of 255 wild-type kinases (Homo sapiens, UniProt Q13237)
Sequence (Q13237 whole entry): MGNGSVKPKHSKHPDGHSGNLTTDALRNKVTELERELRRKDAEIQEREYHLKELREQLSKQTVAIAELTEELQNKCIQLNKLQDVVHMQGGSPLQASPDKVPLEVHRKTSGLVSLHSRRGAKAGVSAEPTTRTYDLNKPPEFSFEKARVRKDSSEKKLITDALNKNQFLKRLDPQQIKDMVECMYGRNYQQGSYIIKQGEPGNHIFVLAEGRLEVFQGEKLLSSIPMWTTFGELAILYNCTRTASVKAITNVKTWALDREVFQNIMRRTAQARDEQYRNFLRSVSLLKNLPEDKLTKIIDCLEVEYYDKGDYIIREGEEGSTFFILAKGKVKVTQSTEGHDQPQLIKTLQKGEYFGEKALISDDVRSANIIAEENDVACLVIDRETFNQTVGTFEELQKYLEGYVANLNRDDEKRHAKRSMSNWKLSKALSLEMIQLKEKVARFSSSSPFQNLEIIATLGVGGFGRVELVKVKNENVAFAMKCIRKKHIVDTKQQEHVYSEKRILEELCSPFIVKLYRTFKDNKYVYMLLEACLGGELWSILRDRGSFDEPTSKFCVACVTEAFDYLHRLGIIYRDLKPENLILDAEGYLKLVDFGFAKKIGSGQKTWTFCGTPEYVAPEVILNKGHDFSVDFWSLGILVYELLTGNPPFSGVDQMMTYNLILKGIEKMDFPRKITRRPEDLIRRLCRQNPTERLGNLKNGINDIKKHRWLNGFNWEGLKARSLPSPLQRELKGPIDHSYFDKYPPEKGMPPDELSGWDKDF
Experiment: Kinase panel profiling at 1 µmol/L (MSA or IMAP), percentage inhibition
Format: biochemical
Conditions: CGK2 kinase assay; 1 µmol/L single concentration; read-out: %-inhibition CGK2
Below, each entry is listed alongside its reported inhibition at 1 µM.
Give the number; % is assumed, so skip it.

[[record]]
chem_smiles = "O=C(Nc1cnn2ccc(N3CCC[C@@H]3c3cc(F)ccc3F)nc12)N1CC[C@H](O)C1"
readout_units = "%"
endpoint_value = -0.443

[[record]]
chem_smiles = "COc1cc2ncnc(Nc3ccc(F)c(Cl)c3)c2cc1NC(=O)/C=C/CN1CCCCC1"
readout_units = "%"
endpoint_value = 10

[[record]]
chem_smiles = "Cn1cnc2c(F)c(Nc3ccc(Br)cc3F)c(C(=O)NOCCO)cc21"
readout_units = "%"
endpoint_value = 2.58

[[record]]
chem_smiles = "C=CC(=O)N1CCC([C@@H]2CCNc3c(C(N)=O)c(-c4ccc(Oc5ccccc5)cc4)nn32)CC1"
readout_units = "%"
endpoint_value = -0.389

[[record]]
chem_smiles = "C[C@H]1Oc2cc(cnc2N)-c2c(nn(C)c2C#N)CN(C)C(=O)c2ccc(F)cc21"
readout_units = "%"
endpoint_value = -3


Request: Please supply the value of reported inhibition at 1 µM for the item `Cc1nc(NC(=O)N2CCC[C@H]2C(N)=O)sc1-c1ccnc(C(C)(C)C(F)(F)F)c1`
Response: -5

Request: Item `CO[C@]1(C(=O)N[C@@H](C)c2ccc(-n3cc(F)cn3)nc2)CC[C@H](c2nc(C)cc(Nc3cc(C)[nH]n3)n2)CC1` : provide inhibition at 1 µM
Response: 25

Request: Give inhibition at 1 µM for the following compound: `COC(=O)N[C@@H](C)CNc1nccc(-c2cn(C(C)C)nc2-c2cc(Cl)cc(NS(C)(=O)=O)c2F)n1`
Response: 0.267

Request: Identify the reported inhibition at 1 µM for the following entry. `COc1ccc(CN2C3CC2CN(c2ccc(-c4cc(OCC(C)(C)O)cn5ncc(C#N)c45)cn2)C3)cn1`
Response: 16

====

System: 134 cancer cell lines
Test: Cell viability assay (ATPlite, 72 hours), IC50 on cancer cell line panel
Conditions: Homo sapiens, BT-474, read-out: IC50 in cell proliferation assay, cell line BT-474 (ERBB2 amplification)
pIC50: −log10 of the molar value.
Let's look at some compounds and their measured pIC50.

[[record]]
chem_smiles = "CO[C@]1(C(=O)N[C@@H](C)c2ccc(-n3cc(F)cn3)nc2)CC[C@H](c2nc(C)cc(Nc3cc(C)[nH]n3)n2)CC1"
endpoint_value = "< 4.50"

[[record]]
chem_smiles = "CC(C)(C)c1nc(-c2cccc(NS(=O)(=O)c3c(F)cccc3F)c2F)c(-c2ccnc(N)n2)s1"
endpoint_value = "< 5.00"


Request: Specify reported pIC50 for the compound shown: `Cn1cnc2c(F)c(Nc3ccc(Br)cc3Cl)c(C(=O)NOCCO)cc21`
Response: < 4.50

====

Parameter inhibition at 1 µM: see the listing below.
Molecular target: panel of 255 wild-type kinases (Homo sapiens, UniProt P05771)
Sequence (P05771 whole entry): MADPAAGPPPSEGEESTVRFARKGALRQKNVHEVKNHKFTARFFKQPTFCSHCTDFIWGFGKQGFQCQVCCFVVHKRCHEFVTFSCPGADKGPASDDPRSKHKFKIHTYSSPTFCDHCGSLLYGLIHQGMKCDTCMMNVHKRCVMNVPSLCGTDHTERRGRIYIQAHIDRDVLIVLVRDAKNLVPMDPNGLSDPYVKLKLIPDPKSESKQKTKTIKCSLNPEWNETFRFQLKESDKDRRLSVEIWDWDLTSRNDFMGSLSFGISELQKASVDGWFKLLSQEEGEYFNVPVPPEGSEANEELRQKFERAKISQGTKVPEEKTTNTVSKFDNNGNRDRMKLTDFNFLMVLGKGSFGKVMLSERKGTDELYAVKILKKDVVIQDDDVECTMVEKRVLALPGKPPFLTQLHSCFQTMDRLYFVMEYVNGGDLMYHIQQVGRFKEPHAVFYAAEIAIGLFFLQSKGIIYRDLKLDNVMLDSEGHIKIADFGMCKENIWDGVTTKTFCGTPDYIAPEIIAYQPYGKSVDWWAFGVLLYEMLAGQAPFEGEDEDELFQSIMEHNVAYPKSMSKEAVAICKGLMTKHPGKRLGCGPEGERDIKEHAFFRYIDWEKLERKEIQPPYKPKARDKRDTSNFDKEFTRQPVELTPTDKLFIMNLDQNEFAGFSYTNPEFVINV
Experiment: Kinase panel profiling at 1 µmol/L (MSA or IMAP), percentage inhibition
Assay type: biochemical
Details: kinase PKCβ1; 1 µmol/L single concentration; read-out: %-inhibition at 1 µmol/L, PKCβ1
Number in %, nothing else.

[[record]]
compound = "C[C@H]1Oc2cc(cnc2N)-c2c(nn(C)c2C#N)CN(C)C(=O)c2ccc(F)cc21 [lorlatinib]"
readout_label = "inhibition at 1 µM"
endpoint_value = 7

[[record]]
compound = "O=C(Nc1cnn2ccc(N3CCC[C@@H]3c3cc(F)ccc3F)nc12)N1CC[C@H](O)C1 [larotrectinib]"
readout_label = "inhibition at 1 µM"
endpoint_value = -2.11

[[record]]
compound = "FC(F)(F)c1ccc(CNc2ccc(Cc3c[nH]c4ncc(Cl)cc34)cn2)cn1 [pexidartinib]"
readout_label = "inhibition at 1 µM"
endpoint_value = 4.22

[[record]]
compound = "Cn1cc(-c2cc3c(N4CCN(c5ncc([C@@](C)(N)c6ccc(F)cc6)cn5)CC4)ncnn3c2)cn1 [avapritinib]"
readout_label = "inhibition at 1 µM"
endpoint_value = 1.74

[[record]]
compound = "CCn1c(=O)c(-c2cc(NC(=O)Nc3ccccc3)c(F)cc2Br)cc2cnc(NC)cc21 [ripretinib]"
readout_label = "inhibition at 1 µM"
endpoint_value = 1.06


Request: Tell me inhibition at 1 µM reported for COc1ccc(CN2C3CC2CN(c2ccc(-c4cc(OCC(C)(C)O)cn5ncc(C#N)c45)cn2)C3)cn1 [selpercatinib]
Response: -0.445

Request: Kindly indicate its recorded inhibition at 1 µM. Item: CCc1nc(C(N)=O)c(Nc2ccc(N3CCC(N4CCN(C)CC4)CC3)c(OC)c2)nc1NC1CCOCC1 [gilteritinib]
Response: 19

Request: Hello, please tell me recorded inhibition at 1 µM for this one: Cn1cnc2c(F)c(Nc3ccc(Br)cc3Cl)c(C(=O)NOCCO)cc21 [selumetinib]
Response: 2.44

Request: Tell me inhibition at 1 µM reported for CCN1C(=O)N(c2c(F)c(OC)cc(OC)c2F)Cc2cnc3[nH]c(CN4CCOCC4)cc3c21 [pemigatinib]
Response: 0.544

Request: Annotate the compound COC(=O)N[C@@H](C)CNc1nccc(-c2cn(C(C)C)nc2-c2cc(Cl)cc(NS(C)(=O)=O)c2F)n1 [encorafenib] with its measured inhibition at 1 µM.
Response: -1

Request: State its inhibition at 1 µM: Cc1nc(NC(=O)N2CCC[C@H]2C(N)=O)sc1-c1ccnc(C(C)(C)C(F)(F)F)c1 [alpelisib]
Response: 7

====

Molecular target: UniProtKB Q96BR1
Sequence (Q96BR1 whole entry): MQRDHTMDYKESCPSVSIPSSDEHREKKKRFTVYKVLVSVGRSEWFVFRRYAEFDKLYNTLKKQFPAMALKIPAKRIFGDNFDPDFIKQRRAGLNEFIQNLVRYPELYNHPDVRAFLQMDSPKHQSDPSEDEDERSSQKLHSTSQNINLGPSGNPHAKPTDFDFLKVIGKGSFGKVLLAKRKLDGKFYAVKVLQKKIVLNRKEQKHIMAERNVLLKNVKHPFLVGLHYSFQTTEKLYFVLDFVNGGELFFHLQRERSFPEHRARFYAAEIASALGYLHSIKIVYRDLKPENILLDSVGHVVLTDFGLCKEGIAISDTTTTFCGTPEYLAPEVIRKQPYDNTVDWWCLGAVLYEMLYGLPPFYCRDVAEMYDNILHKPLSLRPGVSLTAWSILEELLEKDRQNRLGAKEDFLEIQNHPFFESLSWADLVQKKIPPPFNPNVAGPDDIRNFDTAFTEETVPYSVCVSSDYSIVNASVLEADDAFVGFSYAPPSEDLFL
Test: Kinase panel profiling at 1 µmol/L (MSA or IMAP), percentage inhibition
Type: biochemical
Conditions: kinase SGK3; 1 µmol/L single concentration; read-out: %-inhibition at 1 µmol/L, SGK3
// values below are reported inhibition at 1 µM
Use % as the unit, but write only the number.

Example entries and their recorded answers appear below.
[[record]]
chem_smiles = "COc1cc2ncnc(Nc3ccc(F)c(Cl)c3)c2cc1NC(=O)/C=C/CN1CCCCC1"
target_or_test_system = "UniProtKB Q96BR1"
readout_units = "%"
endpoint_value = -20

[[record]]
chem_smiles = "C=CC(=O)N1CCC([C@@H]2CCNc3c(C(N)=O)c(-c4ccc(Oc5ccccc5)cc4)nn32)CC1"
target_or_test_system = "UniProtKB Q96BR1"
readout_units = "%"
endpoint_value = -3.7

[[record]]
chem_smiles = "C[C@H](Nc1ncnc2nc[nH]c12)c1cc2cccc(Cl)c2c(=O)n1-c1ccccc1"
target_or_test_system = "UniProtKB Q96BR1"
readout_units = "%"
endpoint_value = 1.26

[[record]]
chem_smiles = "Cc1cc(Nc2ncnc3ccc(NC4=NC(C)(C)CO4)cc23)ccc1Oc1ccn2ncnc2c1"
target_or_test_system = "UniProtKB Q96BR1"
readout_units = "%"
endpoint_value = -4

[[record]]
chem_smiles = "FC(F)(F)c1ccc(CNc2ccc(Cc3c[nH]c4ncc(Cl)cc34)cn2)cn1"
target_or_test_system = "UniProtKB Q96BR1"
readout_units = "%"
endpoint_value = -0.803


Request: Give a short answer stating reported inhibition at 1 µM for `Cn1cnc2c(F)c(Nc3ccc(Br)cc3F)c(C(=O)NOCCO)cc21` .
Response: -0.74

====

Target: panel of 255 wild-type kinases (Homo sapiens)
Experiment: Kinase panel profiling at 1 µmol/L (MSA or IMAP), percentage inhibition
Assay type: biochemical
Settings: CaMK2β kinase assay; 1 µmol/L single concentration; read-out: %-inhibition CaMK2β
Reported inhibition at 1 µM values are given for each entry in this list.
Write down the numeric answer in % and omit the unit.

Record excerpt, results attached:
[[record]]
chem_smiles = "C[C@H]1Oc2cc(cnc2N)-c2c(nn(C)c2C#N)CN(C)C(=O)c2ccc(F)cc21"
endpoint_value = -3.21

[[record]]
chem_smiles = "CO[C@]1(C(=O)N[C@@H](C)c2ccc(-n3cc(F)cn3)nc2)CC[C@H](c2nc(C)cc(Nc3cc(C)[nH]n3)n2)CC1"
endpoint_value = -0.895


Request: Please report inhibition at 1 µM for the following compound: `FC(F)(F)c1ccc(CNc2ccc(Cc3c[nH]c4ncc(Cl)cc34)cn2)cn1`
Response: 3

Request: Please list inhibition at 1 µM recorded for the compound `Cn1cnc2c(F)c(Nc3ccc(Br)cc3Cl)c(C(=O)NOCCO)cc21`
Response: -0.923

Request: Item `C=CC(=O)N1CCC([C@@H]2CCNc3c(C(N)=O)c(-c4ccc(Oc5ccccc5)cc4)nn32)CC1` : provide inhibition at 1 µM
Response: 2.44

====

Tested on: 134 cancer cell lines
Test: Cell viability assay (ATPlite, 72 hours), IC50 on cancer cell line panel
Conditions: Homo sapiens, RS4-11, read-out: IC50 in cell proliferation assay, cell line RS4;11
pIC50: −log10 of the molar value.
readout.label: pIC50

Use these answered entries as a reference point.
[[record]]
chem_smiles = "O=C(Nc1cnn2ccc(N3CCC[C@@H]3c3cc(F)ccc3F)nc12)N1CC[C@H](O)C1"
target_or_test_system = "134 cancer cell lines"
readout_label = "pIC50"
endpoint_value = "< 4.50"

[[record]]
chem_smiles = "CCCS(=O)(=O)Nc1ccc(F)c(C(=O)c2c[nH]c3ncc(-c4ccc(Cl)cc4)cc23)c1F"
target_or_test_system = "134 cancer cell lines"
readout_label = "pIC50"
endpoint_value = "< 4.50"


Request: Specify pIC50 for `Cn1cnc2c(F)c(Nc3ccc(Br)cc3F)c(C(=O)NOCCO)cc21` and stop.
Response: < 4.50
